settings: buffer; pH 7.4; 200.0 µM
Each entry below carries its recorded solubility kinetic.
Provide only the numeric value, understood in µg/mL.

Query: solubility kinetic; subject: `NC(=O)c1c(/N=C/c2cccnc2)sc2c1CCCC2` 22

Returns the measured solubility kinetic for the input molecule. Input: `CC(C)(C)NC(=O)N1c2ccccc2Sc2ccccc21` 23

For the molecule `Cc1ccc(-c2nc3ncccc3o2)cc1NC(=O)c1ccccc1` , what solubility kinetic is on record? 0.3

Need solubility kinetic of `Nc1nc2ccccc2n1CCOc1ccc(Cl)cc1` , thanks. 25.8

Name the reported solubility kinetic value associated with the molecule `CCN(C(=S)NC(=O)Cc1ccc(OC)cc1)c1ccccc1` 48.9

Form field: reported solubility kinetic of `COc1ccccc1NC(=O)Nc1ccc(N2CCOCC2)cc1` 45.8

====

Reported solubility kinetic values are given for each entry in this list.
settings: buffer; pH 7.4; 200.0 µM
The response must be a number in µg/mL with no trailing unit.

molecule	reported-metric	assay-result
COc1ccc(CCNC2CC(=O)N(C3CCCCC3)C2=O)cc1OC (stereo not given)	solubility kinetic	46.4

Entry `CC1CCN(S(=O)(=O)c2ccc([N+](=O)[O-])cc2)CC1` has what solubility kinetic? 3.2

Can you look up the measured solubility kinetic of `Cc1cccc(C(=O)OCC(=O)NC2CCCCCCC2)c1` for me? 21.6

Returns the measured solubility kinetic for the input molecule. Input: `N#C/C(=C\c1cccnc1)C(=O)Nc1cccc(Cl)c1` 10

Consider the molecule `CC(C)[C@H](NC(=O)c1ccccc1Cl)C(=O)OCC(=O)NC(=O)NCc1ccco1` and give its measured solubility kinetic. 40.1

Give the measured solubility kinetic of `O=C(CSc1ccccc1)Nc1ccc2c(c1)OCO2` . 41.8

====

# maps each entry to its solubility kinetic
conditions: buffer; pH 7.4; 200.0 µM
Give the value in µg/mL but do not write µg/mL after it.

Solved cases below.
compound	solubility kinetic, µg/mL
COc1cccc(OCc2nc(-c3ccc(Br)o3)no2)c1	7.1
CCCN(C(=O)CCc1ccc(OC)cc1)c1c(N)n(Cc2ccccc2)c(=O)[nH]c1=O	8.9
Cc1ccc(S(=O)(=O)N2CCN(C(=O)c3cccs3)CC2)cc1C	44.4
Cc1ccc(NC(=O)c2ccc(Cl)nc2)cc1S(=O)(=O)N1CCOCC1	12.4
CCc1ccc(C(=O)COC(=O)CNC(=O)C2CCCCC2)cc1	18.1

Consider the compound shown here: `C/C(=N\OCC(=O)NC(C)C)c1cccs1` What is its recorded solubility kinetic? 32.5

# query: solubility kinetic of entry `CCC(=NCCc1ccccc1)c1c(O)n(C)c(=O)n(C)c1=O` 42.3

Which solubility kinetic value is on record for `CCOC(=O)Cc1csc(NC(=O)Nc2ccc(F)cc2)n1` ? 4.4

Which solubility kinetic reading was recorded for the compound `COc1cccc2c(=O)n(CC(=O)NCCc3ccccc3)ccc12` ? 1.6

Can you share its solubility kinetic? I mean this compound: O=C1/C(=C/c2ccc([N+](=O)[O-])cc2)CCC1C1CCCC1 (stereo not drawn) 1

Quick one: solubility kinetic of Cc1ccc(NCC(O)Cn2cnc3c2c(=O)n(C)c(=O)n3C)cc1 (stereo not drawn) ? 31.8

Look up solubility kinetic for this compound: CCOc1ccc(N2C(=O)CC(C(C)c3ccccc3)C2=O)cc1 (stereo not drawn) 5.7

Entry `Cc1ccccc1C(=O)NCCNC(=O)c1cnccn1` : reported solubility kinetic = ? 35.7

What value of measured solubility kinetic is listed for `CC(C)(C)c1csc(NC(=O)CSC2=NCCS2)n1` ? 10.6

Entry CN(C)C(CNS(=O)(=O)c1cc([N+](=O)[O-])ccc1Cl)c1ccco1.Cl (stereo not drawn) : reported solubility kinetic = ? 20.6

Field request: solubility kinetic | item: `COc1cc(N=Cc2c(CO)cnc(C)c2O)cc(OC)c1OC` 49.2

# get_value(readout='solubility kinetic', item= `CSc1sc(C(=O)N2CCCCC2)c(-c2cccs2)c1C#N` ) 31.6

What solubility kinetic value was documented for this compound, `O=C(Cn1cc(C(=O)c2ccccc2F)c2ccccc21)NC1CC1` ? 2

Quick one: solubility kinetic for `O=C(CN1C(=O)NC(c2ccccc2)(c2ccccc2)C1=O)NCc1ccco1` ? 13.7

Could you share which solubility kinetic value was measured for CC(C(=O)Nc1cccc(C#N)c1)N(C)CCOc1ccccc1 (stereo not drawn) ? 31.8

Look at this compound and give its reported solubility kinetic. `Nc1nc(NCc2ccco2)nc(NC2CCCCC2)c1[N+](=O)[O-]` 0.3

Item under review: `O=C(NCc1ccc(Cl)cc1Cl)Nc1ccccc1` . Reported solubility kinetic? 0.4

Report solubility kinetic for `COc1cccc(N=Cc2c(O)n(Cc3ccco3)c(=O)[nH]c2=O)c1` please. 6.1

Reported solubility kinetic, compound `COc1cc(Cl)c(C)cc1NC(=O)CSC1=NCCS1` : ____ 11

====

details: buffer; pH 7.4; 200.0 µM
Bucketed by reported solubility kinetic, buckets being small value: < 3 µg/mL; mid value: ≥ 3 µg/mL and < 30 µg/mL; large value: ≥ 30 µg/mL

// known answers, use as guide
compound	classification
COc1ccc(OC)c(NC(=O)NCCc2cccc(Cl)c2)c1	small value
COC(=O)c1ccc2c(c1)C(C)(C)C(/C=C/c1ccc(O)cc1)=[N+]2C.[I-]	large value
Cn1cnc2c1c(=O)n(Cc1cccc(Cl)c1)c(=O)n2C	large value
CCc1ccc(/C=C/c2c([N+](=O)[O-])c(=O)n(C)c(=O)n2C)cc1	mid value
O=C(O)CSC(=S)N1CCCC1	mid value

Which of the defined bands does the recorded solubility kinetic of `COc1ccc(/C=N/Nc2nc(C)cc(=O)[nH]2)cc1OC` sit within? large value

====

Overview of reported solubility kinetic across a group of compounds:
conditions: buffer; pH 7.4; 200.0 µM
Lab book: enter the figure in µg/mL, no units written.

Use the examples below as a reference point.
compound	solubility kinetic / µg/mL
COc1ccc(-c2cn(-c3ccc(C)cc3C)c(=S)[nH]2)cc1OC	16.8
COC(=O)Cn1cc(C(=O)C(C)(C)C)c2ccccc21	37.1
COc1cc2c(cc1OC)-c1cc(Nc3ccccc3C)nc(=O)n1CC2	49.3
Cc1cc(S(=O)(=O)c2ccc([N+](=O)[O-])cn2)ccc1Br	1.7
O=C1NC2(CCCCC2)N(C(=O)c2ccccc2)C2=C1CCCC2	8.1

# get_value(readout='solubility kinetic', item= `CN(C)CCCCOc1ccccc1F.O=C(O)C(=O)O` ) 17.2

Using the record for `CCCNC(=O)Nc1cc(S(=O)(=O)CC)ccc1O` , report its solubility kinetic. 37.9

# solubility kinetic lookup, item `CC1(C)CC(=O)C=C(NCCc2ccccc2)C1` 35.1

For the compound `Cc1cccc(CSc2ncnc3ccccc23)c1` , what solubility kinetic is on record? 0.4

Endpoint output: solubility kinetic of CC(C)=CCN1CCN(Cc2cccc3c2OCO3)CC1CCO (stereo not given) . Value? 36.5

# query: solubility kinetic of entry `CCC(=O)Nc1ccc(C(=O)OCc2ccccc2)cc1` 8.6

Recorded solubility kinetic for `Cc1ccc(Nc2cc(=O)[nH]c(=O)[nH]2)cc1C` , please? 18.2

Given `O=C(CN1CCN(c2ccccc2F)CC1)NCc1ccc(Cl)cc1` , state its recorded solubility kinetic. 49.1

====

conditions: buffer; pH 7.4; 200.0 µM
reported-metric: solubility kinetic (µg/mL)
Expressed in µg/mL, but write only the number.

compound	solubility kinetic, µg/mL
COc1ccc(NC(=O)C(=O)NCCCn2ccnc2)cc1	43.1

Dear colleague, I am looking for the recorded solubility kinetic of the following compound: `CN(CC(=O)Nc1ccccc1Cl)CC(=O)N(C)c1c(N)n(Cc2ccccc2)c(=O)[nH]c1=O` 65.2

Quick one: solubility kinetic of `CC(C)(C)N=Cc1c(O)ccc2oc3c(c12)CCCC3` ? 6.5

solubility kinetic lookup needed for `Cc1cc2ccccn2c1C(=O)c1cccc(F)c1` , thanks. 4.9

So what does the record say about solubility kinetic for COc1cc(CN2CCN(CC3CC3)CC2CCO)cc(OC)c1 (centres undefined) ? 42.6

Would you kindly share the measured solubility kinetic for `CCN1CCN(C(=O)c2cc(-c3ccc(Cl)s3)nc3ccccc23)CC1` ? 53.5

Query: solubility kinetic; subject: COc1ccc(NC(=O)NC2CCCc3ccccc32)cc1OC (centres undefined) 1.1

Could you tell me which solubility kinetic is on file for `COc1ccc(CC(=O)N2CCN(c3cccc(C)c3C)CC2)cc1` ? 25.1

====

The entries below come with measured solubility kinetic values attached.
details: buffer; pH 7.4; 200.0 µM
Reply with just the number (in µg/mL).

compound	units-of-measure	solubility kinetic
O=C(Nc1ccncc1)c1ccc2ccccc2c1	µg/mL	16.5
C/C(=N\O)c1noc(C)c1C(=O)Nc1nccs1	µg/mL	2
O=S(=O)(NCC1CCCO1)c1ccc(Cl)cc1 (stereo not given)	µg/mL	25.5
COc1ccc(C)c(NC(=O)C2CC(=O)NC3=C2C(=O)CCC3)c1 (stereo not given)	µg/mL	47.5
Cl.Fc1ccc(CN2C3=NCCN3c3ccccc32)cc1	µg/mL	43.2

Which solubility kinetic reading was recorded for the compound O=C(NC1(C(F)(F)F)N=C2SCCN2C1=O)c1ccccc1F (stereo not given) ? 50.5
